Tested on: SK-MEL-5 melanoma
Test Summary: NCI tumour cell line growth inhibition, 48 h
Below, each entry is listed with its recorded TGI.

Molecule: COc1cc(N(Cc2ccc3nc(OC)c(OC)nc3c2)Cc2ccc3nc(OC)c(OC)nc3c2)cc(OC)c1OC
TGI: > 50 µM

Molecule: Cc1nc2c(o1)C(=O)c1ccccc1C2=Nc1ccc(N2CCOCC2)cc1
TGI: 3.2 µM

Molecule: O=C(COC(=O)c1cccc2c(=O)c3ccccc3[nH]c12)Nc1ccccc1
TGI: 42.7 µM

Molecule: CNC(=O)CN(C)C(=O)CCC(=O)N(C)C
TGI: > 100 µM

Molecule: CC(C)(C)OC(=O)C1CC[C@@H](CC(=O)Oc2ccc([N+](=O)[O-])cc2)N1 (stereo partly drawn)
TGI: > 100 µM

Molecule: S=c1nc(Cl)cc2[nH]c(Cl)cn12
TGI: 17.5 µM

Molecule: CCCCCCc1nc2nc(Cl)c(Cl)nc2[nH]1
TGI: > 100 µM

Molecule: O=C(NO)c1ccc(Cn2c(=O)n(-c3ccccc3F)c(=O)c3ccccc32)cc1
TGI: 2.96 µM

Molecule: COc1cnc2c(c1)C(=O)c1c-2n(CCCNC(C)C)c(=O)c2cc(F)ccc12
TGI: 0.496 µM

Molecule: C=C1C(=O)OC2CC1CCC1(C)OC1CCC(C)=CCCC2(C)O (stereo not drawn)
TGI: 10.2 µM

Molecule: Brc1cc2c(cc1C1SCCS1)OCO2
TGI: > 100 µM

Molecule: CCCCCCCC(=O)OCC1OC(OC)C(NC(=O)N(CCCl)N=O)C(O)C1O (stereo not drawn)
TGI: 35.8 µM

Molecule: O=S(O)CCCSSc1ccccc1
TGI: > 100 µM

Molecule: CCOc1ccccc1NC(=O)CCc1n[nH]c(=S)o1
TGI: > 100 µM

Molecule: CC(=N\N=C\c1ccccn1)/C(C)=N/N=C(C)/C(C)=N/N=C/c1ccccn1
TGI: > 100 µM

Molecule: COc1ccc(OC)c(-c2cc(=O)c3c(OC)c(OC)c(OC)c(OC)c3o2)c1
TGI: 39.1 µM

Molecule: CCCCN(CCCC)CCCn1c(=O)c2c3ccccc3n(C)c2n2nnc(-c3ccccc3)c12
TGI: > 100 µM

Molecule: Cc1nc(C(N)=S)sc1C(=O)CC(=O)C(=O)Nc1nc2ccccc2[nH]1
TGI: > 100 µM

Molecule: CNC(=O)c1cccc2c(Nc3ccc(NS(C)(=O)=O)cc3OC)c3cccc(C)c3nc12
TGI: 1.9 µM

Molecule: CCOC(=O)C(NCc1cccc(C(F)(F)F)c1)(NC(=O)CC)C(F)(F)F (stereo not drawn)
TGI: > 100 µM

Molecule: CC(=O)C1(N=Nc2ccc(S(N)(=O)=O)cc2)CCOC1=O (stereo not drawn)
TGI: > 100 µM

Molecule: N#Cc1nc(C(CO)N(Cc2ccccc2)C(=O)O)oc1N (stereo not drawn)
TGI: > 100 µM

Molecule: CC(C)N1CN(C(C(=O)N[C@@H]2C(=O)N3C2SC(C)(C)C3C(=O)O)c2ccc(O)cc2)CSC1=S (stereo partly drawn)
TGI: > 100 µM

Molecule: CCOC(=O)/C(C#N)=C1/C(O)=C(C(=O)OC)C(C(=O)OC)=C1C(=O)OC
TGI: > 100 µM

Molecule: Fc1cccc2c1cc1ccc3cccc4ccc2c1c34
TGI: > 100 µM

Molecule: O=c1c2ccccc2c2ccccc2c(=O)n1Cc1ccc2c(c1)OCO2
TGI: > 100 µM

Molecule: O=C(Oc1ccc(Cl)cc1[N+](=O)[O-])c1ccccc1
TGI: 36.7 µM

Molecule: COc1cc(Nc2nc3ccc(C(F)(F)F)cc3nc2C(=O)O)cc(OC)c1OC
TGI: > 100 µM

Molecule: COc1cc(/C=C\c2cccnc2)cc(OC)c1OC
TGI: 40.8 µM

Molecule: CC(=O)NNC(=O)C1CCCCN1 (stereo not drawn)
TGI: > 100 µM

Molecule: CCN(CC)CCCC(C)N=c1cc(Nc2cc(=NC(C)CCCN(CC)CC)c3cc(OC)ccc3o2)oc2ccc(OC)cc12 (stereo not drawn)
TGI: 1.39 µM

Molecule: O=C(Nc1ccc(Cl)c(Cl)c1)N1N=C2c3ccccc3CCC2C1c1ccc(Cl)cc1 (stereo not drawn)
TGI: > 100 µM

Molecule: CC(C)(C)OC(=O)NC(CO)c1cccc(OCc2ccccc2)c1 (stereo not drawn)
TGI: > 100 µM

Molecule: CC(=O)c1cccc(NC(=O)C(=O)Nn2c(N)nnc2N)c1
TGI: > 100 µM

Molecule: Cc1ccc(-c2nc(-c3cnccn3)n(C3OC(CO)C(O)C(O)C3O)n2)cc1 (stereo not drawn)
TGI: > 100 µM

Molecule: O=C(NCC(O)CNC(=O)C(F)(F)F)C(F)(F)F
TGI: > 100 µM

Molecule: C=C(CN1CCN(c2cccc(C(F)(F)F)n2)CC1)c1ccc(C(=S)Nc2ccccc2N)cc1
TGI: 3.17 µM

Molecule: C/C(=N\NC(=S)N(C)CCN(C)C(=S)N/N=C(\C)c1ccccn1)c1ccccn1
TGI: 2.16 µM
